Measured values drawn from PubChem BioAssay AID588773 for this set.

test: pPAFAH inhibition and serine hydrolase selectivity, late-stage follow-up, selectivity assay for pPAFAH inhibitor project, biochemical, gel-based, FP-Rh fluorescence, mouse, HTS hit compounds (AID 588773); details: gel-based competitive ABPP, proteome, MW 30 kDa protein, at 10 µM, active compounds read high
Consider the following compounds; for each one, report its inhibition.
Give bare numbers, in %.

Below are some compounds; for each one, tell me its inhibition.
1. O=C(Oc1ccc(-c2ccccc2)cc1)N1CCOCC1
2. O=C(/C=C/c1cccs1)c1cc(Br)ccc1OC(=O)N1CCOCC1
3. O=C(CCCSc1ccc(Cl)cc1)Nc1cc(S(=O)(=O)N2CCOCC2)ccc1O
4. O=C(Oc1nsnc1N1CCOCC1)N1CCOCC1
5. CCCCOC(=O)c1ccc(OC(=O)N2CCOCC2)cc1

1: 44; 2: 19; 3: 19; 4: 35; 5: 14
